biological target: UniProtKB O43614; experiment: In vitro assay: intracellular calcium measurements (FLIPR), antagonistic activity; assay type: cell-based; settings: CHO cells, 3 nM orexin-A, compound incubation 120 min; marked values are geometric means of n = 2-6; read-out: IC50 OX2
propertyMeasured: pIC50
In textbook form, pIC50 equals minus log to base ten of the concentration in mol/L.

compound	propertyMeasured	numericResult
COc1cccc(OC)c1C1CC(C)C(=O)N1Cc1cccc(-c2cccnc2)c1 (stereo not shown) [Example 141]	pIC50	7.55
COc1cccc(OC)c1C1CCCC(=O)N1Cc1ccnc(Br)c1 (stereo not shown) [Example 36]	pIC50	5.94
COc1ccc2c(c1C1CCCC(=O)N1Cc1cccc(-c3ccccc3)c1)OCO2 (stereo not shown) [Example 457]	pIC50	7.52
COc1cccc(OC)c1C1CC(C)C(=O)N1Cc1cccc(-c2ncc(C)s2)c1 (stereo not shown) [Example 148]	pIC50	7.68
COc1cccc(F)c1C1CC(C)C(=O)N1Cc1cnc2ccccc2c1 (stereo not shown) [Example 358]	pIC50	5.90
COc1cncc(OC)c1C1CCCC(=O)N1Cc1cccc(-n2cccn2)n1 (stereo not shown) [Example 66]	pIC50	5.43

## Input Consider the compound COc1cccc(OC)c1C1CCCC(=O)N1Cc1cc(-c2ccccn2)ccc1Cl (stereo not shown) [Example 48] . State its measured pIC50.
## Output 6.20

## Input Give me measured pIC50, please, for this compound: COc1cccc(OC)c1C1CCCC(=O)N1Cc1cccc(-c2ccccn2)c1F (stereo not shown) [Example 37]
## Output 7.19

## Input Answer with the recorded pIC50 for the compound listed here: COc1cccc(OC)c1C1CC(C)C(=O)N1Cc1cccc(-c2cscn2)c1 (stereo not shown) [Example 150]
## Output 7.33

## Input Name the recorded pIC50 of the item COc1cccc(OC)c1C1CC(C)C(=O)N1Cc1cccc(-n2cccn2)c1 (stereo not shown) [Example 135] in your answer.
## Output 6.58

## Input Please report pIC50 for the following compound: COc1cccc(F)c1C1CC(C)C(=O)N1Cc1ccc2ccccc2n1 (stereo not shown) [Example 359]
## Output 6.48

## Input Read the entry COc1cccc(F)c1[C@@H]1C[C@H](Cl)C(=O)N1Cc1ccc2oc3ccccc3c2c1 (racemic) [Example 408] and write its reported pIC50.
## Output 8.30

====

molecular target: human orexin-2 receptor (Homo sapiens (Human)); test: In vitro assay: intracellular calcium measurements (FLIPR), antagonistic activity; assay type: cell-based; conditions: CHO cells, 3 nM orexin-A, compound incubation 120 min; marked values are geometric means of n = 2-6; read-out: IC50 OX2
Measured log10 of IC50 by item
Heads up: the numbers are on a log10 scale; they represent IC50 in nM.

Field: example entries. Status: answers known.
molecule	targetOrTestSystem	propertyMeasured	numericResult
CCOc1ccccc1[C@@H]1C[C@H](F)C(=O)N1Cc1ccc(OC(F)(F)F)cc1 (racemic) [Example 300]	human orexin-2 receptor (Homo sapiens (Human))	log10 of IC50	1.99
COc1cccc(OC)c1C1CCC(=O)N1Cc1cccc2ccccc12 (centres unmarked) [Example 116]	human orexin-2 receptor (Homo sapiens (Human))	log10 of IC50	2.46
COc1ccc2c(c1C1CCCC(=O)N1Cc1csc(-c3ccccc3)n1)OCO2 (centres unmarked) [Example 459]	human orexin-2 receptor (Homo sapiens (Human))	log10 of IC50	1.60
COc1cccc(OC)c1C1CCCC(=O)N1Cc1cccc(-c2ccccc2)c1 (centres unmarked) [Example 189]	human orexin-2 receptor (Homo sapiens (Human))	log10 of IC50	1.08
COc1cccc(OC)c1C1CCCCC(=O)N1Cc1ccc2sc(C)nc2c1 (centres unmarked) [Example 95]	human orexin-2 receptor (Homo sapiens (Human))	log10 of IC50	1.46
COc1cccc(OC)c1C1CC(C)C(=O)N1Cc1ccc(OCC(F)F)cc1 (centres unmarked) [Example 420]	human orexin-2 receptor (Homo sapiens (Human))	log10 of IC50	2.74
COc1cccc(OC)c1C1CC(C)C(=O)N1Cc1cccc(OCCF)c1 (centres unmarked) [Example 421]	human orexin-2 receptor (Homo sapiens (Human))	log10 of IC50	2.37
COc1cccc(OC)c1C1CCCCC(=O)N1Cc1cccc(N2CCCCC2)c1 (centres unmarked) [Example 88]	human orexin-2 receptor (Homo sapiens (Human))	log10 of IC50	1.76

## Input Indicate the recorded log10 of IC50 value for this molecule: COc1cccc(OC)c1C1CCC(=O)N1Cc1cccc(-c2ccccc2)c1 (centres unmarked) [Example 113]
## Output 1.53

## Input Given COc1cccc(OC)c1C1CC(C)C(=O)N1Cc1ccc(OC(C)C)cc1 (centres unmarked) [Example 397] , respond with its log10 of IC50.
## Output 2.57

====

biological target: human orexin-2 receptor (Homo sapiens (Human), UniProt O43614); experiment: In vitro assay: intracellular calcium measurements (FLIPR), antagonistic activity; format: cell-based; details: CHO cells, 3 nM orexin-A, compound incubation 120 min; marked values are geometric means of n = 2-6; read-out: IC50 OX2
Sequence (O43614 whole entry): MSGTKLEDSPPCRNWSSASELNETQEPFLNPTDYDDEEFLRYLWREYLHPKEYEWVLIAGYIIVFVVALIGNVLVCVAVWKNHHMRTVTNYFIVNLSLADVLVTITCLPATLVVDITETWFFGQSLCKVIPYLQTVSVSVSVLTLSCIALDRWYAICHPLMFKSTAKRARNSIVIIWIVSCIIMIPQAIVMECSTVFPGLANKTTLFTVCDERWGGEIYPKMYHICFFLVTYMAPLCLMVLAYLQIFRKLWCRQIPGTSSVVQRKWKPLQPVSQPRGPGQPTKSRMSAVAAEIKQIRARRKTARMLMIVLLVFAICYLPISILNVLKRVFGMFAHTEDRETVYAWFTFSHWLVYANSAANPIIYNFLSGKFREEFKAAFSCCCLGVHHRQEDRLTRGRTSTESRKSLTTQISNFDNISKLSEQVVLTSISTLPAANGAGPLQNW
Quick reference for IC50 among some compounds
Don't forget the unit after the number, please.

compound	IC50
CCOc1cccc(F)c1C1CC(C)C(=O)N1Cc1ccnc(-c2nc(C)cs2)c1 (stereo not drawn)	2 nM

## Input Give reported IC50 value for COc1cccc(OC)c1C1CCCC(=O)N1Cc1cccc2ccccc12 (stereo not drawn)
## Output 23 nM

## Input State its IC50 for this compound: COc1ccnc(OC)c1C1CC(C)C(=O)N1Cc1csc(-c2ccc(C)cc2)n1 (stereo not drawn)
## Output 51 nM

## Input Specify reported IC50 for the compound shown: COc1ccnc(OC)c1C1CCCC(=O)N1Cc1ccc2oc3ccccc3c2c1 (stereo not drawn)
## Output 3 nM

## Input Return IC50 (reported value) for this compound: CCOc1cccc(F)c1[C@@H]1C[C@H](Cl)C(=O)N1Cc1ccc(OC(F)(F)F)cc1 (racemic)
## Output 15 nM

## Input Item COc1cccc(OC)c1C1CCCCC(=O)N1Cc1cccc(-c2ccncc2)c1 (stereo not drawn) : provide IC50
## Output 85 nM

## Input Supply recorded IC50 for CCOc1cccc(F)c1C1CC(C)C(=O)N1Cc1ccc2oc3ccccc3c2c1 (stereo not drawn) here.
## Output 2 nM

## Input Look up and report measured IC50 for this entry: COc1cncc(OC)c1C1CCCC(=O)N1Cc1cccc(-c2ccccc2)c1 (stereo not drawn)
## Output 31 nM

## Input Return value of IC50 for input COc1cccc(OC)c1C1CC(C)C(=O)N1Cc1ccnc(-n2cccn2)c1 (stereo not drawn) , no commentary.
## Output 204 nM

====

molecular target: human orexin-1 receptor (Homo sapiens (Human), UniProt O43613); assay: In vitro assay: intracellular calcium measurements (FLIPR), antagonistic activity; format: cell-based; conditions: CHO cells, 3 nM orexin-A, compound incubation 120 min; marked values are geometric means of n = 2-6; read-out: IC50 OX1
Sequence (O43613 whole entry): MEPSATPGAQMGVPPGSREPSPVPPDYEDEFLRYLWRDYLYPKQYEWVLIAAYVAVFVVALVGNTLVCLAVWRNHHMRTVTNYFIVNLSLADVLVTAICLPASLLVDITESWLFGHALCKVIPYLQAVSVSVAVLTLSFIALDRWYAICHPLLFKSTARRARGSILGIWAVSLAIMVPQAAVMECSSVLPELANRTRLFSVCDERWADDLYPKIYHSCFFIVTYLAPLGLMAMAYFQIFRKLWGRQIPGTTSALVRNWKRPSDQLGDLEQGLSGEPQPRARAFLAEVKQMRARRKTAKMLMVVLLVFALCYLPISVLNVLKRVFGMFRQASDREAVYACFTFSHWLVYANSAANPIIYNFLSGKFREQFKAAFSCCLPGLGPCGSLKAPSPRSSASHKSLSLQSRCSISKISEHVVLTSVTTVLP
log10 of IC50 for assorted compounds
In our notation, the value equals log10 of IC50 in nM.

## Input Using the record for O=C1CCC(c2ccccc2-c2ccccc2)N1Cc1cccc(-c2ccccc2)c1 (centres unmarked) [Example 285] , state its measured log10 of IC50.
## Output 2.39

## Input For the compound COc1cccc(OC)c1C1CC(C)C(=O)N1Cc1cc(Cl)cc(-c2ccccn2)c1 (centres unmarked) [Example 152] , give its measured log10 of IC50 value.
## Output 1.87

## Input Supply reported log10 of IC50 belonging to this compound: COc1cccc(OC)c1C1CCCC(=O)N1Cc1cccc(-c2nccs2)n1 (centres unmarked) [Example 39]
## Output 2.25

## Input Provide measured log10 of IC50 value, entry: COc1cc(CN2C(=O)C(C)CC2c2c(OC)cccc2OC)ccc1OC(F)F (centres unmarked) [Example 425]
## Output 2.49

## Input Identify log10 of IC50 associated with the compound COc1cccc(OC)c1C1CC(C)C(=O)N1Cc1cc2cc(F)ccc2n1C (centres unmarked) [Example 390]
## Output 1.90

====

molecular target: human orexin-1 receptor (Homo sapiens (Human), UniProt O43613); assay: In vitro assay: intracellular calcium measurements (FLIPR), antagonistic activity; type: cell-based; details: CHO cells, 3 nM orexin-A, compound incubation 120 min; marked values are geometric means of n = 2-6; read-out: IC50 OX1
propertyMeasured: IC50 (nM)
# value in nM; strip the unit string

Here is how some compounds turned out for IC50.
compound	IC50 / nM
COc1cccc(OC)c1C1CC(C)C(=O)N1Cc1ccccc1OC(F)(F)F (centres unmarked)	555
CCOc1cccc(F)c1[C@@H]1C[C@H](Cl)C(=O)N1Cc1ccc(OC(F)(F)F)cc1 (racemic)	603
COc1cccc(OC)c1C1CCCC(=O)N1Cc1cccc(-c2ccccn2)c1 (centres unmarked)	9
COc1cccc(OC)c1C1CCCC(=O)N1Cc1ccnc(N2CCCC2)c1 (centres unmarked)	1050
CCOc1cccc(F)c1C1CC(C)C(=O)N1Cc1cccc(OC(F)(F)F)c1 (centres unmarked)	386

## Input Check human orexin-1 receptor (Homo sapiens (Human), UniProt O43613) data and give IC50 for COc1ccnc(OC)c1C1CCCC(=O)N1Cc1ccc2nc(C)sc2c1 (centres unmarked) .
## Output 2560

## Input Check human orexin-1 receptor (Homo sapiens (Human), UniProt O43613) data and give IC50 for COc1ccnc(OC)c1C1CCCC(=O)N1Cc1ccc(F)c(-c2ccccn2)c1 (centres unmarked) .
## Output 207

## Input Give human orexin-1 receptor (Homo sapiens (Human), UniProt O43613) IC50 for the following compound: COc1cccc(OC)c1C1CCCC(=O)N1Cc1ccc2c(c1)c1ccccc1n2C (centres unmarked)
## Output 50
